settings: 283.15 K; 100 kPa; Liquid; Vibrating tube method

- Molecule: "CCO [ethanol]"
  Unit Descriptor: "kg/m3"
  mass density: 798.51
- Molecule: "CCC(C)O (centres undefined) [butan-2-ol]"
  Unit Descriptor: "kg/m3"
  mass density: 815.39
- Molecule: "CCCCO [butan-1-ol]"
  Unit Descriptor: "kg/m3"
  mass density: 817.21
- Molecule: "O=Cc1ccco1 [2-furaldehyde]"
  Unit Descriptor: "kg/m3"
  mass density: 1169.93

----------
conditions: 303.15 K; 100 kPa; Liquid; Frequency=3 MHz; Sing-around technique in a fixed-path interferometer
Metric Name: speed of sound (m/s)

- Compound: "O=Cc1ccco1"
  Observed Result: 1422.5
- Compound: "CCCCO"
  Observed Result: 1223.6
- Compound: "CCO"
  Observed Result: 1128.3
- Compound: "CCC(C)O (centres undefined)"
  Observed Result: 1196.1

----------
details: 303.15 K; 100 kPa; Liquid; Vibrating tube method

- Molecule: "CCC(C)O (centres undefined)"
  mass density / kg/m3: 798.99
- Molecule: "CCCCO"
  mass density / kg/m3: 802
- Molecule: "O=Cc1ccco1"
  mass density / kg/m3: 1148.69
- Molecule: "CCO"
  mass density / kg/m3: 781.38

----------
settings: 313.15 K; 100 kPa; Liquid; Frequency=3 MHz; Sing-around technique in a fixed-path interferometer
Metric Name: speed of sound (m/s)

- Compound: "CCC(C)O (centres undefined) [butan-2-ol]"
  Metric Name: "speed of sound"
  Observed Result: 1159.5
- Compound: "CCO [ethanol]"
  Metric Name: "speed of sound"
  Observed Result: 1094.6
- Compound: "CCCCO [butan-1-ol]"
  Metric Name: "speed of sound"
  Observed Result: 1190.2
- Compound: "O=Cc1ccco1 [2-furaldehyde]"
  Metric Name: "speed of sound"
  Observed Result: 1386.5

----------
Property: speed of sound; scope: individual molecules
details: 293.15 K; 100 kPa; Liquid; Frequency=3 MHz; Sing-around technique in a fixed-path interferometer
Metric Name: speed of sound (m/s)

- Molecule: "CCC(C)O (centres undefined)"
  Observed Result: 1232.4
- Molecule: "CCCCO"
  Observed Result: 1257.5
- Molecule: "O=Cc1ccco1"
  Observed Result: 1458.8
- Molecule: "CCO"
  Observed Result: 1162.5

----------
details: 283.15 K; 100 kPa; Liquid; Frequency=3 MHz; Sing-around technique in a fixed-path interferometer
Numbers after ± are expanded uncertainties.

- Compound: "CCC(C)O (centres undefined) [butan-2-ol]"
  speed of sound: "1268.4 ± 1.6 m/s"
- Compound: "CCO [ethanol]"
  speed of sound: "1197.3 ± 1.6 m/s"
- Compound: "CCCCO [butan-1-ol]"
  speed of sound: "1291.4 ± 1.6 m/s"
- Compound: "O=Cc1ccco1 [2-furaldehyde]"
  speed of sound: "1495.4 ± 1.6 m/s"

----------
settings: 313.15 K; 100 kPa; Liquid; Vibrating tube method
mass density: recorded values
Metric Name: mass density (kg/m3)

- Compound: "CCO [ethanol]"
  Observed Result: 772.64
- Compound: "O=Cc1ccco1 [2-furaldehyde]"
  Observed Result: 1138.01
- Compound: "CCC(C)O (centres undefined) [butan-2-ol]"
  Observed Result: 790.28
- Compound: "CCCCO [butan-1-ol]"
  Observed Result: 794.21

----------
Consider the following compounds and their measured mass density readings.
conditions: 293.15 K; 100 kPa; Liquid; Vibrating tube method
Metric Name: mass density (kg/m3)

- Compound: "CCCCO"
  Observed Result: 809.65
- Compound: "CCC(C)O (centres undefined)"
  Observed Result: 807.34
- Compound: "O=Cc1ccco1"
  Observed Result: 1159.33
- Compound: "CCO"
  Observed Result: 789.99
